Test system: A549 cells
Experiment: in vitro antiproliferation assay, A549 (lung)
Type: cell-based
Settings: A549 (lung) cells, antiproliferation
Attribute measured: IC50

• Fc1cnc(Nc2cc(-c3ncco3)cc(C(F)(F)F)c2)nc1Nc1cc(-c2ncco2)cc(C(F)(F)F)c1 = ≤ 20 µM
• Fc1ccc(Nc2ncc(F)c(Nc3ccc(F)c(Cl)c3)n2)cc1Cl = > 20 µM
• NC(=O)c1ccc(Nc2ncc(F)c(Nc3ccccc3)n2)cc1 = ≤ 20 µM
• CNC(=O)COc1cccc(Nc2ncc(F)c(N(C)c3cc(C)c(Cl)c(C)c3)n2)c1 = ≤ 20 µM
• CNC(=O)c1ccc(Nc2ncc(F)c(Nc3ccc(OC)c(OC)c3)n2)cc1Cl = ≤ 20 µM
• CNS(=O)(=O)c1ccc(Nc2ncc(F)c(Nc3cc(OC)cc(OC)c3)n2)cc1OC = ≤ 20 µM
• CNS(=O)(=O)c1ccc(Nc2nc(Nc3cc(OC)cc(OC)c3)ncc2F)cc1OC = ≤ 20 µM
• COC(=O)COc1cccc(Nc2ncc(F)c(Nc3cccc(O)c3)n2)c1 = > 20 µM
• CNC(=O)COc1cccc(Nc2ncc(F)c(Nc3ccc(N4CCOCC4)cc3)n2)c1 = > 20 µM
• COc1ccc(Nc2ncc(F)c(Nc3cccc(O)c3)n2)cc1OC = ≤ 20 µM
• Fc1cnc(Nc2cccc(-c3ncco3)c2)nc1Nc1cccc(-c2ncco2)c1 = ≤ 20 µM
• CC(C)(C)OC(=O)NCc1ccc(Nc2ncc(F)c(Nc3ccc(CNC(=O)OC(C)(C)C)cc3)n2)cc1 = ≤ 20 µM
• NC(=O)c1ccc(Nc2nc(Nc3cccc(O)c3)ncc2F)cc1 = > 20 µM
• CNC(=O)COc1cccc(Nc2ncc(F)c(Nc3cccc(C(C)(C)C)c3)n2)c1 = > 20 µM
• NC(=O)COc1ccc(Nc2nc(Nc3cccc(O)c3)ncc2F)cc1 = ≤ 20 µM
• CC(C)c1cccc(Nc2ncc(F)c(Nc3cccc(C(C)C)c3)n2)c1 = > 20 µM
• Cc1cc(N(C)c2nc(Nc3cccc(-c4cnco4)c3)ncc2F)cc(C)c1Cl = > 20 µM
• Oc1ccc(Nc2ncc(F)c(Nc3ccc(O)c(C(F)(F)F)c3)n2)cc1C(F)(F)F = < 20 µM
• NC(=O)c1ccc(Nc2ncc(F)c(Nc3ccc(C(N)=O)cc3)n2)cc1 = > 20 µM
• Oc1c(Cl)cc(Nc2ncc(F)c(Nc3cc(Cl)c(O)c(Cl)c3)n2)cc1Cl = > 20 µM
• Cc1cc(Nc2ncc(F)c(Nc3cccc(O)c3)n2)cc(Cl)c1O = ≤ 20 µM
• CNC(=O)COc1cccc(Nc2ncc(F)c(N(C)c3ccc(OC)c(OC)c3)n2)c1 = > 20 µM
• Cc1cc(Nc2ncc(F)c(Nc3cccc(C(C)(C)C)c3)n2)cc(Cl)c1O = > 20 µM

----------
System: H1299 cells
Assay: in vitro antiproliferation assay, H1299 (lung)
Format: cell-based
Settings: H1299 (lung) cells, in vitro antiproliferation
Attribute measured: IC50

- CNC(=O)COc1cccc(Nc2ncc(F)c(N(C)c3cc(OC)cc(OC)c3)n2)c1: > 20 µM
- COc1c(Cl)cc(Nc2ncc(F)c(Nc3ccc(Cl)c(Cl)c3)n2)cc1Cl: ≤ 20 µM
- CNC(=O)COc1cc(Nc2ncc(F)c(Nc3cccc(O)c3)n2)cc(OCC(=O)NC)c1: > 20 µM
- COc1cc(Nc2nc(Nc3cc(C)cc(C)c3)ncc2F)cc(OC)c1: ≤ 20 µM
- COc1c(Cl)cc(Nc2ncc(F)c(Nc3ccc(OC(F)(F)F)c(Cl)c3)n2)cc1Cl: > 20 µM
- COc1cc(Nc2nc(Nc3cc(CO)cc(CO)c3)ncc2F)cc(C(F)(F)F)c1: < 20 µM
- COc1cc(Nc2ncc(F)c(N(C)c3cc(OC)cc(OC)c3)n2)cc(OC)c1: ≤ 20 µM
- COc1cc(Nc2ncc(F)c(Nc3ccc(OC)c(Cl)c3)n2)cc(C(F)(F)F)c1: > 20 µM
- COc1cc(Nc2ncc(F)c(Nc3ccc(N4CCOCC4)c(Cl)c3)n2)cc(C(F)(F)F)c1: ≤ 20 µM

----------
Tested on: H1299 cells
Experiment: in vitro antiproliferation assay, H1299 (lung)
Assay type: cell-based
Conditions: H1299 (lung) cells, in vitro antiproliferation
pIC50: −log10 of the molar value.
# pIC50 values compiled below
Attribute measured: pIC50

• COc1cc(OC)cc(N(C)c2nc(Nc3ccc(Cl)c(OC)c3)ncc2F)c1 = < 4.70
• COc1ccc(Nc2nc(Nc3ccc(N4CCN(C(C)=O)CC4)cc3)ncc2F)cc1OC = ≥ 4.70
• COc1cc(Nc2nc(Nc3cc(CO)cc(CO)c3)ncc2F)cc(OC)c1 = ≥ 4.70
• Fc1ccc(Nc2ncc(F)c(Nc3ccc(F)c(Cl)c3)n2)cc1Cl = < 4.70
• COc1cc(Nc2ncc(F)c(Nc3ccc(OC)c(OC)c3)n2)cc(OC)c1 = ≥ 4.70
• COc1cc(Nc2nc(Nc3cc(C)cc(C)c3)ncc2F)cc(C(F)(F)F)c1 = ≥ 4.70
• Cc1cc(C)cc(Nc2ncc(F)c(Nc3cc(C)cc(C)c3)n2)c1 = ≥ 4.70
• COc1cc(Nc2nc(Nc3cccc(N4CCN(C(C)=O)CC4)c3)ncc2F)cc(OC)c1 = ≥ 4.70
• COc1cc(Nc2ncc(F)c(N(C)c3ccc(OC)c(OC)c3)n2)cc(OC)c1 = ≥ 4.70
• Fc1cnc(Nc2ccc(C(F)(F)F)cc2)nc1Nc1ccc(C(F)(F)F)cc1 = < 4.70
• COc1ccc(Nc2nc(Nc3cccc(-c4ncco4)c3)ncc2F)cc1OC = ≥ 4.70
• COc1ccc(Nc2nc(Nc3cc(CO)cc(CO)c3)ncc2F)cc1Cl = ≥ 4.70
• COc1ccc(Nc2nc(Nc3cccc(N4CCN(C(C)=O)CC4)c3)ncc2F)cc1OC = ≥ 4.70
• COc1cc(OC)cc(N(C)c2nc(Nc3ccc(OC)c(Cl)c3)ncc2F)c1 = < 4.70
• COc1cc(Nc2ncc(F)c(Nc3cccc(OC(F)(F)F)c3)n2)cc(OC)c1 = ≥ 4.70
• CCOC(=O)COc1cccc(Nc2ncc(F)c(Nc3cc(OC)cc(OC)c3)n2)c1 = ≥ 4.70
• COc1cc(Nc2nc(Nc3cc(Cl)cc(Cl)c3)ncc2F)cc(C(F)(F)F)c1 = ≥ 4.70
• COC(=O)COc1cccc(Nc2ncc(F)c(Nc3cccc(OCC(=O)OC)c3)n2)c1 = ≥ 4.70
• CC(C)(C)c1ccc(Nc2ncc(F)c(Nc3ccc(C(C)(C)C)cc3)n2)cc1 = < 4.70

----------
Tested on: A549 cells
Assay: in vitro antiproliferation assay, A549 (lung)
Type: cell-based
Details: Table 5; in vitro antiproliferation, A549 (lung) cells
Protocol: The IC50 values of various compounds against a various different tumor cell lines were determined using standard in vitro antiproliferation assays. […]
pIC50: −log10 of the molar value.
# pIC50 values compiled below
Attribute measured: pIC50

• Fc1ccc(Nc2ncc(F)c(Nc3ccc4c(c3)OCCO4)n2)cc1 [compound 487] = < 4.70
• Fc1cnc(Nc2cccc(Cl)c2)nc1Nc1ccc2c(c1)OC(F)(F)O2 [compound 513] = ≥ 4.70
• CNC(=O)COc1c(C)cc(Nc2ncc(F)c(N(C)c3ccc4c(c3)OC(F)(F)C(F)(F)O4)n2)cc1C [compound 574] = ≥ 4.70
• COc1cc(Nc2ncc(F)c(Nc3ccc4c(c3)OCCO4)n2)cc(C(F)(F)F)c1 [compound 531] = < 4.70
• Cc1cc(O)cc(Nc2ncc(F)c(Nc3ccc4c(c3)OCCO4)n2)c1 [compound 521] = ≥ 4.70
• Fc1cnc(Nc2cccc(-c3ncco3)c2)nc1Nc1ccc2c(c1)OC(F)(F)C(F)(F)O2 [compound 571] = ≥ 4.70
• Cc1cc(C)cc(Nc2ncc(F)c(N(C)c3ccc4c(c3)OCCO4)n2)c1 [compound 547] = ≥ 4.70
• Cc1cc(C)cc(Nc2ncc(F)c(Nc3ccc4c(c3)OCO4)n2)c1 [compound 544] = < 4.70
• CNC(=O)COc1c(C)cc(Nc2ncc(F)c(Nc3ccc4c(c3)OCO4)n2)cc1C [compound 570] = ≥ 4.70
• Fc1cc(Nc2ncc(F)c(Nc3ccc4c(c3)OCCO4)n2)cc(C(F)(F)F)c1 [compound 522] = < 4.70
• CC(=O)COc1cccc(Nc2ncc(F)c(Nc3ccc4c(c3)OCCO4)n2)c1 [compound 492] = < 4.70
• CC(=O)N1CCN(c2cccc(Nc3ncc(F)c(Nc4ccc5c(c4)OCCO5)n3)c2)CC1 [compound 550] = ≥ 4.70
• CNC(=O)COc1cccc(Nc2ncc(F)c(Nc3ccc4c(c3)OCCO4)n2)c1 [compound 495] = > 4.70
• O=C(COc1cccc(Nc2ncc(F)c(Nc3ccc4c(c3)OCCO4)n2)c1)NC1CCCCC1 [compound 508] = < 4.70
• Fc1cnc(Nc2cc(Cl)cc(Cl)c2)nc1Nc1ccc2c(c1)OC(F)(F)C(F)(F)O2 [compound 535] = ≥ 4.70
• O=C(COc1cccc(Nc2ncc(F)c(Nc3ccc4c(c3)OCCO4)n2)c1)NC1CC1 [compound 520] = ≥ 4.70
• CN(CCO)C(=O)COc1cccc(Nc2ncc(F)c(Nc3ccc4c(c3)OCCO4)n2)c1 [compound 509] = < 4.70
• Fc1cnc(Nc2cc(Cl)cc(Cl)c2)nc1Nc1ccc2c(c1)OC(F)(F)O2 [compound 564] = ≥ 4.70
• COc1cc(Cl)cc(Nc2ncc(F)c(Nc3ccc4c(c3)OCCO4)n2)c1 [compound 539] = ≥ 4.70
